- EXPERIMENTAL PROTOCOL: in vivo
- CONDITION LABEL: female, Beagle, dog, in vivo, po, 300 mg/kg/day
VALUE KIND: Cmax (µM)

smiles_string=CC(C)c1ccc(CC(=O)N[C@H](C)c2ccc(OCC(F)(F)F)cn2)cc1 value=158

====

- EXPERIMENTAL PROTOCOL: in vivo
- CONDITION LABEL: female, rat, po, 10 mg/kg/day
VALUE KIND: AUC (µM·h)

compound="CC(C)c1ccc(CC(=O)N[C@H](C)c2ccc(OCC(F)(F)F)cn2)cc1 [CX-8998]" unit_symbol=µM·h value=20.7

====

- EXPERIMENTAL PROTOCOL: in vivo
- CONDITION LABEL: female, rat, po, 5 mg/kg/day
VALUE KIND: half-life (h)

smiles_string=CC(C)c1ccc(CC(=O)N[C@H](C)c2ccc(OCC(F)(F)F)cn2)cc1 value=1.6

====

- TEST TARGET: Cav3.2 (Homo sapiens)
- Sequence (O95180 whole entry): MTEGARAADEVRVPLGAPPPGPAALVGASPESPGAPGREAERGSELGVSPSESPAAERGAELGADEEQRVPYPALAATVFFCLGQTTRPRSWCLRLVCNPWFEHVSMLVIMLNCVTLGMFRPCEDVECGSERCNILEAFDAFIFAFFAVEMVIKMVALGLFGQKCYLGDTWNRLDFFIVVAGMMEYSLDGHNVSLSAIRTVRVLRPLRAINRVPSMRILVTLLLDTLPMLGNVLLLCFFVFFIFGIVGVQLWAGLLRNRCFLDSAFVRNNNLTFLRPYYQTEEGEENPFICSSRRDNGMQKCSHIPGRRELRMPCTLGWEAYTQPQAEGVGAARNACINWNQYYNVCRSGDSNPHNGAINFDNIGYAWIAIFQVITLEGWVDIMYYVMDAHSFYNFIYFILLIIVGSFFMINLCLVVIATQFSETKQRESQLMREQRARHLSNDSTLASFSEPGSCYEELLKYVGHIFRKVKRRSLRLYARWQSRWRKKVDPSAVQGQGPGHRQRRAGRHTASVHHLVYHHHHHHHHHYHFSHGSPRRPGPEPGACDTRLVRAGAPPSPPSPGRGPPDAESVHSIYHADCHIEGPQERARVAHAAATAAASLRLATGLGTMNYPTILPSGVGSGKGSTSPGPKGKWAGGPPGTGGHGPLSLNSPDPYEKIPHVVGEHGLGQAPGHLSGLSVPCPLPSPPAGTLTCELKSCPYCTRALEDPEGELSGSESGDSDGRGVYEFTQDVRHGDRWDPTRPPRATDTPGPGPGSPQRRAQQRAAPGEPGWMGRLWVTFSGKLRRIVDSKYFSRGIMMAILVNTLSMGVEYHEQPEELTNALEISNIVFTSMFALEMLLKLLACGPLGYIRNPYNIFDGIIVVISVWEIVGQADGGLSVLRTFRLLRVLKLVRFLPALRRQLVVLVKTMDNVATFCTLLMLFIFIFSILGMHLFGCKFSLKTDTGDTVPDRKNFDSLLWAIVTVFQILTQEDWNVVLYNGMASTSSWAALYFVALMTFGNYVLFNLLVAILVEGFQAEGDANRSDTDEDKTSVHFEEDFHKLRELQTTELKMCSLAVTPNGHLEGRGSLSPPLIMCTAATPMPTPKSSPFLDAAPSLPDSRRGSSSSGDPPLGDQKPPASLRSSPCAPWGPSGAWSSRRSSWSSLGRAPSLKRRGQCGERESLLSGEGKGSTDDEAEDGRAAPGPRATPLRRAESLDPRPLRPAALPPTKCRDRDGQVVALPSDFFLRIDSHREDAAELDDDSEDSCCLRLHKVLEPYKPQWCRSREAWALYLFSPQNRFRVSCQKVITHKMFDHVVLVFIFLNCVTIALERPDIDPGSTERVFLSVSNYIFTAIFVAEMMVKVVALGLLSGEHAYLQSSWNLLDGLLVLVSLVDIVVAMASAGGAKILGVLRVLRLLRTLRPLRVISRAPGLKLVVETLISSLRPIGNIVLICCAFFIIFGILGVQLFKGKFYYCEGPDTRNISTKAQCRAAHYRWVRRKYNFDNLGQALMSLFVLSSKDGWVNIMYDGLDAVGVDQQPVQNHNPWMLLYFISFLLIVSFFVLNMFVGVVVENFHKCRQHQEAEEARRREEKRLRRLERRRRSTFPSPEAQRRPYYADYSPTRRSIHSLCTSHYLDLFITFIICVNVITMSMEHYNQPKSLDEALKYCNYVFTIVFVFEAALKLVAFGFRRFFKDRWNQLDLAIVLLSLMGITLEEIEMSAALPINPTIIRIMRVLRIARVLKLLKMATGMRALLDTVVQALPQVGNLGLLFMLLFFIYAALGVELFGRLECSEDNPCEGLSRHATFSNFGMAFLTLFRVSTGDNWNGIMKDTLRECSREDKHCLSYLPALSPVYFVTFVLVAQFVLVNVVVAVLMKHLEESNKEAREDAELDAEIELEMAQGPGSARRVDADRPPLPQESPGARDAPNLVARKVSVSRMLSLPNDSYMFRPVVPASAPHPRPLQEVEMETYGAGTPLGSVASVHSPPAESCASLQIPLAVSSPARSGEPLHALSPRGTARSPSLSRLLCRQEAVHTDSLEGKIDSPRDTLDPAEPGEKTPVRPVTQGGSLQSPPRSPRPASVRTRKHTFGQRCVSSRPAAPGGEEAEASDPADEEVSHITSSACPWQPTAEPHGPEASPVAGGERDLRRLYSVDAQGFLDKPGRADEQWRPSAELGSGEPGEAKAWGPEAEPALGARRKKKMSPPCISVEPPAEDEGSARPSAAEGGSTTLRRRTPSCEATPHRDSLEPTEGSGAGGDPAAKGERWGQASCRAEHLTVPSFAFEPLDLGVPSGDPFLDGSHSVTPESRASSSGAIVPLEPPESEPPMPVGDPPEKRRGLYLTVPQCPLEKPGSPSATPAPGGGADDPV
- EXPERIMENTAL PROTOCOL: Cav3.2 electrophysiology
- CONDITION LABEL: Vh=−80 mV
VALUE KIND: IC50 (nM)

smiles_string=CC(C)c1ccc(CC(=O)N[C@H](C)c2ccc(OCC(F)(F)F)cn2)cc1 test_target="Cav3.2 (Homo sapiens)" unit_symbol=nM value=96

====

A collection of compounds and their measured Kp at 2 h
- EXPERIMENTAL PROTOCOL: Brain penetration in male rats
- Type: in vivo
- CONDITION LABEL: rat, brain and plasma, oral, 25 mg/kg, read-out: Brain-to-plasma ratio
VALUE KIND: Kp at 2 h

compound=C=C(C)c1ccc(CC(=O)N[C@H](C)c2ccc(OCC(F)(F)F)cn2)cc1 value_kind="Kp at 2 h" value=0.27
compound="CC(C(=O)O)c1ccc(CC(=O)N[C@H](C)c2ccc(OCC(F)(F)F)cn2)cc1 (stereo partly drawn)" value_kind="Kp at 2 h" value=0.01
compound=C[C@@H](NC(=O)Cc1ccc(C(C)(C)O)cc1)c1ccc(OCC(F)(F)F)cn1 value_kind="Kp at 2 h" value=0.32

====

- EXPERIMENTAL PROTOCOL: in vivo
- CONDITION LABEL: female, rat, po, 5 mg/kg
VALUE KIND: AUC (µM·h)

molecule=C[C@@H](NC(=O)Cc1ccc(C(C)(C)O)cc1)c1ccc(OCC(F)(F)F)cn1 unit_symbol=µM·h value=16.7
molecule="CC(C(=O)O)c1ccc(CC(=O)N[C@H](C)c2ccc(OCC(F)(F)F)cn2)cc1 (stereo partly shown)" unit_symbol=µM·h value=9.85
molecule=C=C(C)c1ccc(CC(=O)N[C@H](C)c2ccc(OCC(F)(F)F)cn2)cc1 unit_symbol=µM·h value=5.02
molecule="CC(CO)c1ccc(CC(=O)N[C@H](C)c2ccc(OCC(F)(F)F)cn2)cc1 (stereo partly shown)" unit_symbol=µM·h value=3.19

====

- EXPERIMENTAL PROTOCOL: 4-week oral toxicology in rats (with FOB)
- CONDITION LABEL: male, rat, plasma, po, 30 mg/kg/day, AUC24, Male rats, 30 mg/kg/day oral gavage, Day 28; mean (SD)
VALUE KIND: AUC (µM·h)

compound="CC(C)c1ccc(CC(=O)N[C@H](C)c2ccc(OCC(F)(F)F)cn2)cc1 [CX-8998]" value=35.1

====

- EXPERIMENTAL PROTOCOL: 4-week oral toxicology in rats (with FOB)
- CONDITION LABEL: female, rat, plasma, po, 2000 mg/kg/day, Cmax, Female rats, 2000 mg/kg/day oral gavage, Day 28; mean (SD)
VALUE KIND: Cmax (µM)

compound="CC(C)c1ccc(CC(=O)N[C@H](C)c2ccc(OCC(F)(F)F)cn2)cc1 [CX-8998]" value_kind=Cmax value=33.5

====

- EXPERIMENTAL PROTOCOL: Phase 1 multiple-dose pharmacokinetics (PN002/Part II)
- CONDITION LABEL: human, plasma, 2 mg, Cmax, M02, Day 7, CX-8998 2 mg once daily
VALUE KIND: Cmax (nM)

smiles_string=C[C@@H](NC(=O)Cc1ccc(C(C)(C)O)cc1)c1ccc(OCC(F)(F)F)cn1 unit_symbol=nM value=54

====

- EXPERIMENTAL PROTOCOL: 90-day oral toxicology in Beagle dogs
- CONDITION LABEL: male, Beagle, dog, in vivo, po, 10 mg/kg
VALUE KIND: AUC (µM·h)

molecule=C=C(C)c1ccc(CC(=O)N[C@H](C)c2ccc(OCC(F)(F)F)cn2)cc1 value_kind=AUC value=54.9
molecule="CC(CO)c1ccc(CC(=O)N[C@H](C)c2ccc(OCC(F)(F)F)cn2)cc1 (stereo partly shown)" value_kind=AUC value=3.37
molecule=C[C@@H](NC(=O)Cc1ccc(C(C)(C)O)cc1)c1ccc(OCC(F)(F)F)cn1 value_kind=AUC value=149
molecule="CC(C(=O)O)c1ccc(CC(=O)N[C@H](C)c2ccc(OCC(F)(F)F)cn2)cc1 (stereo partly shown)" value_kind=AUC value=10.5

====

- EXPERIMENTAL PROTOCOL: Phase 1 single-dose pharmacokinetics (PN001, PN002/Part I, PN003, PN005)
- Type: in vivo, human
- CONDITION LABEL: male, human, plasma, oral, Average of studies, dose 16, 1 dose; read-out: AUC0-24
VALUE KIND: AUC(0-t) (µM·h)

smiles_string=CC(C)c1ccc(CC(=O)N[C@H](C)c2ccc(OCC(F)(F)F)cn2)cc1 unit_symbol=µM·h value=8.22

====

- EXPERIMENTAL PROTOCOL: in vivo
- CONDITION LABEL: male, rat, po, 100 mg/kg/day
VALUE KIND: Tmax (h)

smiles_string=CC(C)c1ccc(CC(=O)N[C@H](C)c2ccc(OCC(F)(F)F)cn2)cc1 value=2

====

- EXPERIMENTAL PROTOCOL: Phase 1 multiple-dose pharmacokinetics (PN002/Part II)
- CONDITION LABEL: human, plasma, 18 mg, Cmax, M02, Day 7, CX-8998 18 mg once daily
VALUE KIND: Cmax

smiles_string=C[C@@H](NC(=O)Cc1ccc(C(C)(C)O)cc1)c1ccc(OCC(F)(F)F)cn1 value="481 nM"

====

- TEST TARGET: Cav3.3 (Homo sapiens, UniProt Q9P0X4)
- Construct: expressed in transfected cells; host or cells: HEK 293
- Sequence (Q9P0X4 whole entry, species assumed): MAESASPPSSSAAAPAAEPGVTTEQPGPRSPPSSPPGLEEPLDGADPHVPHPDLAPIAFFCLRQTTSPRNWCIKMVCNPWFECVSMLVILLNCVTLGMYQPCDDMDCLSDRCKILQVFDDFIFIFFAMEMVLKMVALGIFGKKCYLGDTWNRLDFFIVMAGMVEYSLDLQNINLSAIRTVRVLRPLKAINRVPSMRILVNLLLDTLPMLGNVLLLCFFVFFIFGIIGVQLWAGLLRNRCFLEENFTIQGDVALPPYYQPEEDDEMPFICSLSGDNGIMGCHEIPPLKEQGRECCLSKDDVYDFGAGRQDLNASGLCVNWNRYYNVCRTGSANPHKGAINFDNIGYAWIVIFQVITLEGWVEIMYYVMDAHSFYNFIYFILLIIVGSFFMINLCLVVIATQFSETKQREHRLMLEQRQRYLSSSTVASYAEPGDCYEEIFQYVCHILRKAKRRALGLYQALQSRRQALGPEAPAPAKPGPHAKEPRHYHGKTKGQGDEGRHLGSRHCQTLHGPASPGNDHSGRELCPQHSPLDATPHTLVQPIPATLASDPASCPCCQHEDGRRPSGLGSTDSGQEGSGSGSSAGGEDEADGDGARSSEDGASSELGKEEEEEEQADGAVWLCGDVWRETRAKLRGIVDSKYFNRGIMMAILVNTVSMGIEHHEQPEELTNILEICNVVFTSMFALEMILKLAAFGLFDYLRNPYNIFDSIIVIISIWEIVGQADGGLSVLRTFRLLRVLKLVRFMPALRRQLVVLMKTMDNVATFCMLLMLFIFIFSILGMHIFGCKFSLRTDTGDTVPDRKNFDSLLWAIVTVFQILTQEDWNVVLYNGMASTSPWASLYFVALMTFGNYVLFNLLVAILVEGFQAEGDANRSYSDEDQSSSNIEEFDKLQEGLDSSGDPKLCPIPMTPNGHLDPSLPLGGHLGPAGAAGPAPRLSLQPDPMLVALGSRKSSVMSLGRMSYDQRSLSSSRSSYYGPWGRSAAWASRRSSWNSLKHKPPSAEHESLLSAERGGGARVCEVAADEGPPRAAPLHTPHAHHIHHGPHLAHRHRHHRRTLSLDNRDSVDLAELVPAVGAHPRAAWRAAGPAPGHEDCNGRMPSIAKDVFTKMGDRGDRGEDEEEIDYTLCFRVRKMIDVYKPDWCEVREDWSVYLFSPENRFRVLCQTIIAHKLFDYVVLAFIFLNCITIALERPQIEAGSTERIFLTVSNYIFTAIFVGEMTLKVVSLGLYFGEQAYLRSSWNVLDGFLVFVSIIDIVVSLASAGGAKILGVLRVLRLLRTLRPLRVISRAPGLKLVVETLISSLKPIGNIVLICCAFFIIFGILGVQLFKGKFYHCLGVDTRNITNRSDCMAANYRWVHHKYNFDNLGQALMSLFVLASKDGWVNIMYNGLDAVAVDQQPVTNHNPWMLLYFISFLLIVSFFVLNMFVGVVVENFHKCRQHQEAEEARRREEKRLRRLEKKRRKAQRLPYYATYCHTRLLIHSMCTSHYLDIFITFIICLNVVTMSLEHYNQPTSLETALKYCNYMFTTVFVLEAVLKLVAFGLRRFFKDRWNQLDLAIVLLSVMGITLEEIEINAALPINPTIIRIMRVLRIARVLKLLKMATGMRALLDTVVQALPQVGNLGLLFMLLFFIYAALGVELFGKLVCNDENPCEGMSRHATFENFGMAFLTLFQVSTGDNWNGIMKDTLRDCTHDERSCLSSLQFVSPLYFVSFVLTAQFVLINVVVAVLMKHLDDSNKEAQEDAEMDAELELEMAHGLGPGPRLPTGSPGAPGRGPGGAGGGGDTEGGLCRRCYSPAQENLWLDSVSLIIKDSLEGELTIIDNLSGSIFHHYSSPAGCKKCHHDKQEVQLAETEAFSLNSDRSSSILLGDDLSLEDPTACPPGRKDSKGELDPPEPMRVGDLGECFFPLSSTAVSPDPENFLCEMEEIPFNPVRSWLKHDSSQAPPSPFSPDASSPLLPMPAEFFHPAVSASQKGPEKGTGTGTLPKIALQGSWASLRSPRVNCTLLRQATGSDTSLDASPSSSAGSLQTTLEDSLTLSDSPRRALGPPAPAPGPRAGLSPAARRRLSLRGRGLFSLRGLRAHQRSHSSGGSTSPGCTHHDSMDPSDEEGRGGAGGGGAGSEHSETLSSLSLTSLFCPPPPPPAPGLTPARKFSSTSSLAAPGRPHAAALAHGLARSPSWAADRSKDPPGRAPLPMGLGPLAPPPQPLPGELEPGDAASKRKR
- EXPERIMENTAL PROTOCOL: Cav3.3 FLIPR calcium influx assay (HEK 293 cells)
- Assay type: cell-based
- CONDITION LABEL: hyperpolarized versus depolarized FLIPR potency
VALUE KIND: State dependence

molecule=C[C@@H](NC(=O)Cc1ccc(C(C)(C)O)cc1)c1ccc(OCC(F)(F)F)cn1 test_target="Cav3.3 (Homo sapiens, UniProt Q9P0X4)" value="166 fold"
molecule="CC(CO)c1ccc(CC(=O)N[C@H](C)c2ccc(OCC(F)(F)F)cn2)cc1 (stereo partly shown)" test_target="Cav3.3 (Homo sapiens, UniProt Q9P0X4)" value="95 fold"
molecule=C=C(C)c1ccc(CC(=O)N[C@H](C)c2ccc(OCC(F)(F)F)cn2)cc1 test_target="Cav3.3 (Homo sapiens, UniProt Q9P0X4)" value="37 fold"
molecule="CC(C(=O)O)c1ccc(CC(=O)N[C@H](C)c2ccc(OCC(F)(F)F)cn2)cc1 (stereo partly shown)" test_target="Cav3.3 (Homo sapiens, UniProt Q9P0X4)" value="3.5 fold"

====

- EXPERIMENTAL PROTOCOL: T-CALM: plasma concentrations by 5-in-1 LC/MS/MS
- Assay type: in vivo, human
- CONDITION LABEL: Visit 3 (Day 15), 8 mg BID, trough
VALUE KIND: Plasma concentration, mean (nM)

compound="CC(CO)c1ccc(CC(=O)N[C@H](C)c2ccc(OCC(F)(F)F)cn2)cc1 (stereo partly shown) [M04]" value=4.9
compound="CC(C(=O)O)c1ccc(CC(=O)N[C@H](C)c2ccc(OCC(F)(F)F)cn2)cc1 (stereo partly shown) [M03]" value=16
compound="C=C(C)c1ccc(CC(=O)N[C@H](C)c2ccc(OCC(F)(F)F)cn2)cc1 [M01]" value=812
compound="C[C@@H](NC(=O)Cc1ccc(C(C)(C)O)cc1)c1ccc(OCC(F)(F)F)cn1 [M02]" value=325

====

- Tested on: Cav3
- Construct: rows headed: Cav3 potency
- EXPERIMENTAL PROTOCOL: Cav3 potency and state dependency, summary of Cav3 antagonist pharmacological properties
- Assay type: cell-based
VALUE KIND: IC50

smiles_string=CC(C)c1ccc(CC(=O)N[C@H](C)c2ccc(OCC(F)(F)F)cn2)cc1 test_target=Cav3 value="70 to 100 nM"

====

- EXPERIMENTAL PROTOCOL: Phase 1 single-dose pharmacokinetics (PN001, PN002/Part I, PN003, PN005)
- Type: in vivo, human
- CONDITION LABEL: male, human, plasma, oral, 1 mg, PN001/Part I, males 20-40 y, single 1 mg, morning fasted; read-out: Cmax
VALUE KIND: Cmax (nM)

molecule="CC(C)c1ccc(CC(=O)N[C@H](C)c2ccc(OCC(F)(F)F)cn2)cc1 [CX-8998]" value=104
